Attribution: PubChem BioAssay AID248

Please provide measured T/C for the entries that follow.
test system: L1210 leukemia ip in BDF1 mice, survival T/C; experiment: NCI In Vivo Anticancer Drug Screen. Data for tumor model L1210 Leukemia (intraperitoneal) in B6D2F1 (BDF1) mice; details: endpoint: mean survival time; dose: 200.0 mg/kg/injection; schedule: Q04DX002 (ip); vehicle: Klucel (hydroxypropylcellulose) (HPC); higher = longer survival
Inconclusive results and toxic doses are left out.

What reported T/C corresponds to CC1(C)C(N2CCCC2)N(C(=O)c2ccccc2)SC12c1ccccc1-c1ccccc12 (stereo unspecified) on L1210 leukemia ip in BDF1 mice, survival T/C? 105 % of control

// lookup T/C | system=L1210 leukemia ip in BDF1 mice, survival T/C | key= COc1ccc(C(=O)Nc2ccccc2)cc1NC(=S)Nc1ccccc1 98 % of control

Lab request: please report T/C under test system L1210 leukemia ip in BDF1 mice, survival T/C for CC(=O)Nc1cccc(N)c1 107 % of control

Can you look up T/C on L1210 leukemia ip in BDF1 mice, survival T/C for O=C1c2cccc3c([N+](=O)[O-])ccc(c23)C(=O)N1Cc1ccco1 ? 97 % of control

Hello, I am looking for reported T/C with L1210 leukemia ip in BDF1 mice, survival T/C for COP(=O)(OC)Oc1c(Cl)c(OP(=O)(OC)OC)c(Cl)c(OP(=O)(OC)OC)c1Cl . Could you help? 100 % of control

Give T/C (L1210 leukemia ip in BDF1 mice, survival T/C) of the following molecule: CS(=O)(=O)c1ccc(C(O)C(CO)NC(=O)C(Cl)Cl)cc1 (stereo unspecified) 93 % of control

API: value(readout= T/C, system= L1210 leukemia ip in BDF1 mice, survival T/C, query= NC(=O)NC(=O)CCl ) 95 % of control

Hi! What's the reported T/C for Cc1cc(O)c([N+](=O)[O-])c(=O)o1 (tested in a mixture with another compound) on L1210 leukemia ip in BDF1 mice, survival T/C? 97 % of control

Find the measured T/C: item COc1ccc(NC(=O)Nc2cc([N+](=O)[O-])ccc2C)c(OC)c1 , target or system L1210 leukemia ip in BDF1 mice, survival T/C. 108 % of control

Any idea what T/C came out for CCCCCCCCCCCC(=O)NC(=S)Nc1cccc(O)c1 on L1210 leukemia ip in BDF1 mice, survival T/C? 87 % of control

Notebook entry, L1210 leukemia ip in BDF1 mice, survival T/C assay: T/C of CCO/C(C)=N/OC(=O)c1cc(Cl)ccc1Cl = ? 110 % of control

Which measured T/C belongs to COC1OC(CI)C(OC(=O)c2ccccc2)C(OC(=O)c2ccccc2)C1OC(=O)c1ccccc1 (stereo unspecified) , tested on L1210 leukemia ip in BDF1 mice, survival T/C? 93 % of control

What value of T/C on L1210 leukemia ip in BDF1 mice, survival T/C does CC(C)OC(=O)Nc1cccc(C(F)(F)F)c1 have? 88 % of control

What is its T/C for L1210 leukemia ip in BDF1 mice, survival T/C? Entry: Cc1c(F)cccc1OCC(=O)O 108 % of control

Hello, I am looking for reported T/C with L1210 leukemia ip in BDF1 mice, survival T/C for CCN(C(=O)c1cccc(C(=O)N(CC)c2cccc(C)c2)c1)c1cccc(C)c1 . Could you help? 91 % of control

I'm curious: which T/C was measured for CC(C)Cc1cc(C#N)cc(C(C)(C)C)c1O tested on L1210 leukemia ip in BDF1 mice, survival T/C? 100 % of control

Provide value of T/C for this record tested with L1210 leukemia ip in BDF1 mice, survival T/C: ClC1c2ccccc2-c2nsnc2C1Cl (stereo unspecified) 92 % of control

Which T/C is reported with L1210 leukemia ip in BDF1 mice, survival T/C for this entry: Cc1ccc(C(=O)N/N=C/c2ccc3ccccc3c2)cc1 ? 103 % of control

Query T/C on L1210 leukemia ip in BDF1 mice, survival T/C for COc1cc(Cl)ccc1NC(=O)Oc1ccc(C=O)cc1OC 90 % of control

Return T/C measured with L1210 leukemia ip in BDF1 mice, survival T/C given this molecule: O=C1Nc2ccccc2C1Cc1cc2c(nn1)[nH]c1ccccc12 (stereo unspecified) 96 % of control

Short answer please: T/C, L1210 leukemia ip in BDF1 mice, survival T/C, entry O=[N+]([O-])c1cccc(/C=N/N(c2ccccc2)C2CCS(=O)(=O)C2)c1 (stereo unspecified) 106 % of control

Lab note: need T/C for O=C(O)c1cccc2c1C(=O)c1c(Cl)cccc1C2=O on L1210 leukemia ip in BDF1 mice, survival T/C, anyone have it? 99 % of control

Param readout = T/C; param system = L1210 leukemia ip in BDF1 mice, survival T/C; param query = N#Cc1nc2c(n(O)c1=N)CCC/C2=C\c1ccc(Cl)c(Cl)c1 ; response: value 89 % of control

# query: T/C | item Cc1cc(C)c(NC(N)=S)cc1C | system: L1210 leukemia ip in BDF1 mice, survival T/C 94 % of control

Look up T/C with L1210 leukemia ip in BDF1 mice, survival T/C for this molecule: CCCCCCCCCCCCCCCCCCNC(=O)Nc1ccc(C)c(Cl)c1 93 % of control

Find the measured T/C: item Cc1ccc(NC(=O)C(c2ccc(Cl)cc2)c2ccc(Cl)cc2)cc1 , target or system L1210 leukemia ip in BDF1 mice, survival T/C. 100 % of control

Request: T/C, test system L1210 leukemia ip in BDF1 mice, survival T/C, entry O=C(O)Cc1ccc(Cl)c2ccccc12 104 % of control

Could you share what T/C was measured for CC1(C)CCC(C)(C)C(O)C1O (stereo unspecified) , tested on L1210 leukemia ip in BDF1 mice, survival T/C? 105 % of control

Quick check: T/C on L1210 leukemia ip in BDF1 mice, survival T/C, item CCOC(=O)Nc1cc2c(c(N)n1)N=C(CN(C)c1ccccc1)CN2 ? 96 % of control

Item Cc1cccc(C)c1NC(=O)Nc1ncccn1 with L1210 leukemia ip in BDF1 mice, survival T/C - T/C? 97 % of control

Which T/C is reported with L1210 leukemia ip in BDF1 mice, survival T/C for this entry: NNC(=O)CNc1ccc(F)cc1Cl ? 105 % of control
